Entry source: patent US20230357429A1

Reported pKd values follow for various binders
Target: T1, Human TROP2 ECD (31-274 AA), biotinylated (human, UniProt P09758 31-274, biotinylated (site not stated))
T1 construct: also called tumor-associated calcium signal transducer 2; Human TROP2-biotin
T1 sequence: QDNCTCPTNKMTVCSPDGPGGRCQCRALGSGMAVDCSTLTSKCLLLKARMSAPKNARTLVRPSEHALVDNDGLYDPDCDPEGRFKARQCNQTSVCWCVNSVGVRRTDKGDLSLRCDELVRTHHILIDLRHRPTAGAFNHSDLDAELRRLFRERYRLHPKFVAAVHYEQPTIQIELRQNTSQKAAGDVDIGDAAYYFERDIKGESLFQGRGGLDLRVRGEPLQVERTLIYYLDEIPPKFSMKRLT
Assay: BLI (Octet), biotinylated human TROP2 ECD on SAX sensor, Fab 6.25-50 nM
pKd: −log10 of the molar value.
quantity name: pKd

binder="TBD-6 (anti-TROP2 Fab, LC I93A) (Fab, V domains shown, also called TBD-6 (LC I93A mutant)) VH: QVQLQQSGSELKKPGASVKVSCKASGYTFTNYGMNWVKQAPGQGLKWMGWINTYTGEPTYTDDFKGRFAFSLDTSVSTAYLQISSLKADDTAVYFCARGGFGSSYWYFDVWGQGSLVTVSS VL: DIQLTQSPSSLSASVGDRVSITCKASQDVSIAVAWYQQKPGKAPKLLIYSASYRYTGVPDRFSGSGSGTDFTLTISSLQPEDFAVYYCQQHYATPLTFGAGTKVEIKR" measurement=9.15
binder="TBD-10 (anti-TROP2 Fab, LC T97A) (Fab, V domains shown) VH: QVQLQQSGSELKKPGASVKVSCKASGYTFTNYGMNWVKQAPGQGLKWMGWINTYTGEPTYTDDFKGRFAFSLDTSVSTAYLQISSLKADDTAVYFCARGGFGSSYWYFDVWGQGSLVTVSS VL: DIQLTQSPSSLSASVGDRVSITCKASQDVSIAVAWYQQKPGKAPKLLIYSASYRYTGVPDRFSGSGSGTDFTLTISSLQPEDFAVYYCQQHYITPLAFGAGTKVEIKR" measurement=9.22
binder="TBD-3 (anti-TROP2 Fab, LC Q90A) (Fab, V domains shown) VH: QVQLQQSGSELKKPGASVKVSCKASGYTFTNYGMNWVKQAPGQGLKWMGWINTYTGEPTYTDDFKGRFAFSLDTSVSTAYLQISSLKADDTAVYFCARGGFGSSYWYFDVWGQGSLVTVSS VL: DIQLTQSPSSLSASVGDRVSITCKASQDVSIAVAWYQQKPGKAPKLLIYSASYRYTGVPDRFSGSGSGTDFTLTISSLQPEDFAVYYCQAHYITPLTFGAGTKVEIKR" measurement=9.15
binder="TBD-7 (anti-TROP2 Fab, LC T94A) (Fab, V domains shown) VH: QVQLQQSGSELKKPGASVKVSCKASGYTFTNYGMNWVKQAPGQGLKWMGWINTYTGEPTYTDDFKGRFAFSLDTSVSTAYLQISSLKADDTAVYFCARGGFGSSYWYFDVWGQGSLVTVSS VL: DIQLTQSPSSLSASVGDRVSITCKASQDVSIAVAWYQQKPGKAPKLLIYSASYRYTGVPDRFSGSGSGTDFTLTISSLQPEDFAVYYCQQHYIAPLTFGAGTKVEIKR" measurement=9.22
